- test description: Peak plasma drug level after intraduodenal administration at a dose 10 mg/kg from portal circulation in salt-depleted cynomolgus monkeys using HPLC assay
- Assay type: ADME, organism-based, Macaca fascicularis
- Parameters: dose 10 mg/kg, route intraduodenal
- assay setup: cynomolgus monkey, read-out: Activity
value kind: Cmax (ng/mL)
All answers are understood in ng/mL, so give the number only.

Inquiry: Using the record for "CCN1C[C@@H]([C@H](O)[C@H](CC2CCCCC2)NC(=O)[C@H](Cc2cscn2)NC(=O)[C@@H](CC(=O)N2CCOCC2)Cc2ccccc2)OC1=O" , report its Cmax.
Reply text: 3200

---

- test description: Plasma level by the renin inhibition assay from samples taken at 30 minutes from systemic circulation by administering 10 mg/kg intraduodenally to the rat
value kind: concentration at 0.5 h (ng/mL)
All answers are understood in ng/mL, so give the number only.

Inquiry: Using the record for "COc1ccc(C[C@H](NC(=O)CC(C)(C)N)C(=O)N[C@@H](Cc2cnc[nH]2)C(=O)N[C@@H](CC2CCCCC2)[C@@H](O)[C@@H](O)CC(C)C)cc1" , report its concentration at 0.5 h.
Reply text: 82

Inquiry: Using the record for "CCN1C[C@@H]([C@H](O)[C@H](CC2CCCCC2)NC(=O)[C@H](Cc2cccs2)NC(=O)[C@H](Cc2ccc(OC)cc2)NC(=O)CC(C)(C)N)OC1=O" , report its concentration at 0.5 h.
Reply text: 32

Inquiry: Using the record for "CC(C)C[C@H](O)[C@H](O)[C@H](CC1CCCCC1)NC(=O)[C@H](Cc1cn(C)cn1)NC(=O)[C@@H](CC(=O)N1CCOCC1)Cc1ccccc1" , report its concentration at 0.5 h.
Reply text: 320

---

- target entity: Renin (Homo sapiens)
- Sequence (P00797 whole entry): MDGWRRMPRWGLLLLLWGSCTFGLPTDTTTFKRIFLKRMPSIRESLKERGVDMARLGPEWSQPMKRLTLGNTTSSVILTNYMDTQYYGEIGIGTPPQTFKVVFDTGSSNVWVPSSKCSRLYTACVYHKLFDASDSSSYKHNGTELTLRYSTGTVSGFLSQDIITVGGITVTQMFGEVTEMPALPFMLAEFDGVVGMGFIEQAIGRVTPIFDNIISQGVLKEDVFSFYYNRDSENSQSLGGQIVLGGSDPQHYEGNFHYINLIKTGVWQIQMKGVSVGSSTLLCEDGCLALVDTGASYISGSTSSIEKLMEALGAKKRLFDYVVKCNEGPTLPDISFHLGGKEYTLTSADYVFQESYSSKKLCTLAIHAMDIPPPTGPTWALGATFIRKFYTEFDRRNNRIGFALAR
- test description: Inhibition of human plasma renin at pH 7.4
Listing of recorded pIC50 by entry.
The read-out pIC50 is expressed as -log10 of concentration in moles per litre.

Below: 4 compounds and their reported pIC50.
# smiles text, value kind, result number
records = [
    ("CC(C)C[C@H](O)[C@H](O)[C@H](CC1CCCCC1)NC(=O)[C@H](Cc1cccs1)NC(=O)[C@@H](CC(=O)N1CCN(C)CC1)Cc1ccccc1", "pIC50", 6.96),
    ("CC(C)C[C@H](O)[C@H](O)[C@H](CC1CCCCC1)NC(=O)[C@H](Cn1cccn1)NC(=O)[C@@H](CC(=O)N1CCN(C)CC1)Cc1ccccc1", "pIC50", 7.74),
    ("COc1ccc(C[C@H](NC(=O)CC(C)(C)N)C(=O)N[C@@H](Cc2cccs2)C(=O)N[C@@H](CC2CCCCC2)[C@@H](O)[C@@H](O)CC(C)C)cc1", "pIC50", 7.07),
    ("CON(C)C[C@H](NC(=O)[C@@H](CC(=O)N1CCOCC1)Cc1ccccc1)C(=O)N[C@@H](CC1CCCCC1)[C@@H](O)[C@@H](O)CC(C)C", "pIC50", 7.06),
]

Attention now shifts to the item below.
Inquiry: Using the record for "CC(C)C[C@H](O)[C@H](O)[C@H](CC1CCCCC1)NC(=O)[C@H](Cc1ccn[nH]1)NC(=O)[C@@H](CC(=O)N1CCN(C)CC1)Cc1ccccc1" , report its pIC50.
Reply text: 8.55

---

- test description: Plasma level by the renin inhibition assay from samples taken at 30 minutes from portal circulation by administering 10 mg/kg intraduodenally to the rat
# note: exactly 0.2 µg/mL is not below, so it is N; use Y for concentration at 0.5 h strictly under it

Example entries begin here.
# smiles text, answer label
rows = [
    ("COc1ccc(C[C@H](NC(=O)CC(C)(C)N)C(=O)N[C@@H](Cc2cnc[nH]2)C(=O)N[C@@H](CC2CCCCC2)[C@@H](O)[C@@H](O)CC(C)C)cc1", "N"),
    ("CC(C)C[C@H](NC(=O)[C@@H](CC(=O)N1CCN(C)CC1)Cc1ccccc1)C(=O)N[C@@H](CC1CCCCC1)[C@@H](O)[C@@H](O)CC(C)C", "N"),
    ("CCCC[C@H](NC(=O)[C@@H](CC(=O)N1CCN(C)CC1)Cc1ccccc1)C(=O)N[C@@H](CC1CCCCC1)[C@@H](O)[C@@H](O)CC(C)C", "N"),
    ("CC(C)C[C@H](O)[C@H](O)[C@H](CC1CCCCC1)NC(=O)[C@H](Cc1cn(C)cn1)NC(=O)[C@@H](CC(=O)N1CCOCC1)Cc1ccccc1", "N"),
    ("CCN1C[C@@H]([C@H](O)[C@H](CC2CCCCC2)NC(=O)[C@H](Cc2cc[nH]n2)NC(=O)[C@@H](CC(=O)N2CCOCC2)Cc2ccccc2)OC1=O", "Y"),
    ("CC(C)C[C@H](O)[C@H](O)[C@H](CC1CCCCC1)NC(=O)[C@H](Cn1cccn1)NC(=O)[C@@H](CC(=O)N1CCN(C)CC1)Cc1ccccc1", "N"),
    ("CCN1C[C@@H]([C@H](O)[C@H](CC2CCCCC2)NC(=O)[C@H](Cc2cscn2)NC(=O)[C@H](Cc2ccc(OC)cc2)NC(=O)CC(C)(C)N)OC1=O", "N"),
    ("COc1ccc(C[C@H](NC(=O)CC(C)(C)N)C(=O)N[C@@H](Cc2cccs2)C(=O)N[C@@H](CC2CCCCC2)[C@@H](O)[C@@H](O)CC(C)C)cc1", "Y"),
]

Inquiry: Lab note: concentration at 0.5 h threshold 0.2 µg/mL. Does this molecule come in strictly under it? "CC(C)C[C@H](O)[C@H](O)[C@H](CC1CCCCC1)NC(=O)[C@H](Cc1c[nH]cn1)NC(=O)[C@@H](CC(=O)N1CCN(C)CC1)Cc1ccccc1"
Reply text: Y

Inquiry: Lab note: concentration at 0.5 h threshold 0.2 µg/mL. Does this molecule come in strictly under it? "COc1ccc(C[C@H](NC(=O)C2CCN(C)CC2)C(=O)N[C@@H](Cc2cscn2)C(=O)N[C@@H](CC2CCCCC2)[C@@H](O)[C@@H](O)CC(C)C)cc1"
Reply text: N

Inquiry: Lab note: concentration at 0.5 h threshold 0.2 µg/mL. Does this molecule come in strictly under it? "CC(C)C[C@H](O)[C@H](O)[C@H](CC1CCCCC1)NC(=O)[C@H](Cc1c[nH]cn1)NC(=O)[C@@H](CC(=O)N1CCOCC1)Cc1ccccc1"
Reply text: Y

Inquiry: Lab note: concentration at 0.5 h threshold 0.2 µg/mL. Does this molecule come in strictly under it? "CCN1C[C@@H]([C@H](O)[C@H](CC2CCCCC2)NC(=O)[C@H](Cc2c[nH]cn2)NC(=O)[C@H](Cc2ccc(OC)cc2)NC(=O)CC(C)(C)N)OC1=O"
Reply text: N
